# System: H1975OR
# MEASUREMENT NOTES: CCK-8 tumor cell proliferation, H1975OR
# Format: cell-based
# CONDITION SET: H1975OR cells (Osimertinib resistant), 72 hours
PROPERTY NAME: IC50 (µM)
Answer with a number only, understood to be in µM.

Example entries begin here.
COc1cc(N2CCN(CCCCCCCCNC(=O)C3CC3)CC2)ccc1Nc1ncc2c(C)cc(=O)n(-c3cccc(NC(=O)C4CC4)c3)c2n1 : 0.0487
COc1cc(N2CCN(CCCCCCCCCCCCNC(=O)CC34CC5CC(CC(C5)C3)C4)CC2)ccc1Nc1ncc2c(C)cc(=O)n(-c3cccc(OCC4CC4)c3)c2n1 : 0.0609

Now look at this one.
Recorded IC50 (compound COc1cc(N2CCN(CCCCCCCCCCCCNC(=O)CC34CC5CC(CC(C5)C3)C4)CC2)ccc1Nc1ncc2c(C)cc(=O)n(C3CCCC3)c2n1 ): 0.734

* * *

# TARGET SYSTEM: AKT3 (Homo sapiens)
# Sequence (Q9Y243 whole entry): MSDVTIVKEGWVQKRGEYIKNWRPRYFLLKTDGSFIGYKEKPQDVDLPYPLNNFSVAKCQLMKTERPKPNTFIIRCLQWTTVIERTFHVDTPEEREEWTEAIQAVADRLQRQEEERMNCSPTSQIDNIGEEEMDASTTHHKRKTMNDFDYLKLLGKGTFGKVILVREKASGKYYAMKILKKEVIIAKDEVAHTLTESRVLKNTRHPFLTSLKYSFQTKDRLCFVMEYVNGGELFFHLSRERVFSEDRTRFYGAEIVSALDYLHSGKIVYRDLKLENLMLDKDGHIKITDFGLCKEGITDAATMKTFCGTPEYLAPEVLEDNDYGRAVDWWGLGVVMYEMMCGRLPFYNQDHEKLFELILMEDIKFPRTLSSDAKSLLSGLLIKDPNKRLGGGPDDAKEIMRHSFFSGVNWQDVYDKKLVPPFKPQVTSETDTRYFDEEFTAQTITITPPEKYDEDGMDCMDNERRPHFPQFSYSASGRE
# MEASUREMENT NOTES: Western Blot, degradation of AKT3 protein in H1975-OR cells
# Assay type: cell-based
# Parameters: endogenous in cells; host or cells: H1975-OR (osimertinib-resistant H1975)
# CONDITION SET: 1000 nM, 24 hours, maximum degradation rate
# Dmax at 1 µM per record follows
Answer with a number only, understood to be in %.

Example entries begin here.
COc1cc(N2CCN(CCCCCCCCCCCCNC(=O)CC34CC5CC(CC(C5)C3)C4)CC2)ccc1Nc1ncc2c(C)cc(=O)n(-c3cccc(NC(=O)C4CC4)c3)c2n1 [ZX-HYT-11] : 91.1
COc1cc(N2CCN(CCCCCCCCNC(=O)CC34CC5CC(CC(C5)C3)C4)CC2)ccc1Nc1ncc2c(C)cc(=O)n(-c3cccc(NC(=O)C(C)(C)C)c3)c2n1 [ZX-HYT-48] : 60.6
COc1cc(N2CCN(CCCCCCCCN)CC2)ccc1Nc1ncc2c(C)cc(=O)n(-c3cccc(NC(=O)C4CC4)c3)c2n1 [ZX-HYT-31] : 55.5
COc1cc(N2CCN(CCCCCCCCCCCCNC(=O)CC34CC5CC(CC(C5)C3)C4)CC2)ccc1Nc1ncc2c(C)cc(=O)n(-c3cccc(NCC4CCC4)c3)c2n1 [ZX-HYT-39] : 55.3
COc1cc(N2CCN(CCCCCCCCNC(=O)CC(C)(C)C)CC2)ccc1Nc1ncc2c(C)cc(=O)n(-c3cccc(NC(=O)C4CC4)c3)c2n1 [ZX-HYT-33] : 55.3
COc1cc(N2CCN(CCCCCCCCNC(=O)CC34CC5CC(CC(C5)C3)C4)CC2)ccc1Nc1ncc2c(C)cc(=O)n(-c3cccc(NC(=O)C4CC4)c3)c2n1 [ZX-HYT-47] : 67.5

Now look at this one.
Recorded Dmax at 1 µM (compound COc1cc(N2CCN(CCCCCCCCCCCCNC(=O)CC34CC5CC(CC(C5)C3)C4)CC2)ccc1Nc1ncc2c(C)cc(=O)n(-c3cccc(NC(=O)C(C)(C)C)c3)c2n1 [ZX-HYT-12] ): 75.4

* * *

# TARGET SYSTEM: AKT1 (Homo sapiens, UniProt P31749)
# Construct: AKT1, AKT2, and AKT3 proteins in H1975-OR cells; endogenous in cells; host or cells: H1975-OR (osimertinib-resistant H1975)
# Sequence (P31749 whole entry): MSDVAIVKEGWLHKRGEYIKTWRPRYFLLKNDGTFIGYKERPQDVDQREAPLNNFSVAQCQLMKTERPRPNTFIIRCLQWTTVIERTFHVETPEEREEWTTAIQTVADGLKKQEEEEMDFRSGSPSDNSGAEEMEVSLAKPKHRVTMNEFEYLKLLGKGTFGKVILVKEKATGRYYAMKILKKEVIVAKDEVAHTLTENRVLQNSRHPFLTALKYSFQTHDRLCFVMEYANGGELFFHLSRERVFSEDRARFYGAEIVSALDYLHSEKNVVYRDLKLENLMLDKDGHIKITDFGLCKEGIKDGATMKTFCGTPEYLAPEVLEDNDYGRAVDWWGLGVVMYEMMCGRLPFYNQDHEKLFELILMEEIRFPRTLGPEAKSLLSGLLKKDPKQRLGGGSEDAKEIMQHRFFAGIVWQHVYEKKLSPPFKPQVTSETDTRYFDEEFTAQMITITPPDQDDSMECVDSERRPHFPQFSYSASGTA
# MEASUREMENT NOTES: Western Blot, degradation of AKT1 protein in H1975-OR cells
# Assay type: cell-based
# CONDITION SET: 1000 nM, 24 hours, maximum degradation rate
PROPERTY NAME: Dmax at 1 µM (%)
Answer with a number only, understood to be in %.

Example entries begin here.
COc1cc(N2CCN(CCCCCCCCNC(=O)C3C[C@H]4C=C[C@@H]3C4)CC2)ccc1Nc1ncc2c(C)cc(=O)n(-c3cccc(NC(=O)C4CC4)c3)c2n1 (stereo partly drawn) [ZX-HYT-60] : 13
COc1cc(N2CCN(CCCCCCCCNC(=O)CC(C)(C)C)CC2)ccc1Nc1ncc2c(C)cc(=O)n(-c3cccc(NC(=O)C4CC4)c3)c2n1 [ZX-HYT-33] : 0
COc1cc(N2CCN(CCCCCCCCCCCCNC(=O)CC34CC5CC(CC(C5)C3)C4)CC2)ccc1Nc1ncc2c(C)cc(=O)n([C@H]3CCCN(C(=O)C4CC4)C3)c2n1 [ZX-HYT-22] : 0
COc1cc(N2CCN(CCCCCCCCN)CC2)ccc1Nc1ncc2c(C)cc(=O)n(-c3cccc(NC(=O)C4CC4)c3)c2n1 [ZX-HYT-31] : 0
C=CC(=O)Nc1cccc(-n2c(=O)cc(C)c3cnc(Nc4ccc(N5CCN(CCOCCOCCNC(=O)CC67CC8CC(CC(C8)C6)C7)CC5)cc4OC)nc32)c1 [ZX-HYT-01] : 59.2

Recorded Dmax at 1 µM (compound COc1cc(N2CCN(CCCCCCCCCCCCNC(=O)CC34CC5CC(CC(C5)C3)C4)CC2)ccc1Nc1ncc2c(C)cc(=O)n(-c3cccc(NCC4CCC4)c3)c2n1 [ZX-HYT-39] ): 0
